- systemName: Tyk2 (Homo sapiens (Human))
- assayName: Enzyme assay (Assay Example^a 1), Tyk2
- Type: biochemical
- measurementContext: ATP 100 μM
Threshold-based label: IC50 under 0.3 µM gives Met, IC50 not under 0.3 µM gives Not met.

Prompt: Strictly below 0.3 µM: is that where IC50 of N#CCNS(=O)(=O)C[C@H]1CC[C@H](c2nnn3cnc4[nH]ccc4c23)CC1 sits?
Completion: Met

Prompt: Strictly below 0.3 µM: is that where IC50 of COc1ccc(C(O)(CN[C@H]2CC[C@H](c3nnn4cnc5[nH]ccc5c34)CC2)C(F)(F)F)cn1 (some centres unmarked) [387b] sits?
Completion: Met

Prompt: Strictly below 0.3 µM: is that where IC50 of N#C[C@H]1CCN(C(=O)[C@H]2CC[C@H](c3nnn4cnc5[nH]ccc5c34)CC2)C1 sits?
Completion: Not met

Prompt: Strictly below 0.3 µM: is that where IC50 of O=C(C[C@H]1CC[C@H](c2nnn3cnc4[nH]ccc4c23)CC1)NCC(F)(F)F [442b] sits?
Completion: Not met

Prompt: Strictly below 0.3 µM: is that where IC50 of c1cc2c(ncn3nnc(C4CCN(Cc5cnc(N6CCOCC6)s5)CC4)c23)[nH]1 sits?
Completion: Not met

====

Measured IC50 accompanies every entry in the list below.
- systemName: Tyk2 (Homo sapiens (Human), UniProt P29597)
- Sequence (P29597 whole entry): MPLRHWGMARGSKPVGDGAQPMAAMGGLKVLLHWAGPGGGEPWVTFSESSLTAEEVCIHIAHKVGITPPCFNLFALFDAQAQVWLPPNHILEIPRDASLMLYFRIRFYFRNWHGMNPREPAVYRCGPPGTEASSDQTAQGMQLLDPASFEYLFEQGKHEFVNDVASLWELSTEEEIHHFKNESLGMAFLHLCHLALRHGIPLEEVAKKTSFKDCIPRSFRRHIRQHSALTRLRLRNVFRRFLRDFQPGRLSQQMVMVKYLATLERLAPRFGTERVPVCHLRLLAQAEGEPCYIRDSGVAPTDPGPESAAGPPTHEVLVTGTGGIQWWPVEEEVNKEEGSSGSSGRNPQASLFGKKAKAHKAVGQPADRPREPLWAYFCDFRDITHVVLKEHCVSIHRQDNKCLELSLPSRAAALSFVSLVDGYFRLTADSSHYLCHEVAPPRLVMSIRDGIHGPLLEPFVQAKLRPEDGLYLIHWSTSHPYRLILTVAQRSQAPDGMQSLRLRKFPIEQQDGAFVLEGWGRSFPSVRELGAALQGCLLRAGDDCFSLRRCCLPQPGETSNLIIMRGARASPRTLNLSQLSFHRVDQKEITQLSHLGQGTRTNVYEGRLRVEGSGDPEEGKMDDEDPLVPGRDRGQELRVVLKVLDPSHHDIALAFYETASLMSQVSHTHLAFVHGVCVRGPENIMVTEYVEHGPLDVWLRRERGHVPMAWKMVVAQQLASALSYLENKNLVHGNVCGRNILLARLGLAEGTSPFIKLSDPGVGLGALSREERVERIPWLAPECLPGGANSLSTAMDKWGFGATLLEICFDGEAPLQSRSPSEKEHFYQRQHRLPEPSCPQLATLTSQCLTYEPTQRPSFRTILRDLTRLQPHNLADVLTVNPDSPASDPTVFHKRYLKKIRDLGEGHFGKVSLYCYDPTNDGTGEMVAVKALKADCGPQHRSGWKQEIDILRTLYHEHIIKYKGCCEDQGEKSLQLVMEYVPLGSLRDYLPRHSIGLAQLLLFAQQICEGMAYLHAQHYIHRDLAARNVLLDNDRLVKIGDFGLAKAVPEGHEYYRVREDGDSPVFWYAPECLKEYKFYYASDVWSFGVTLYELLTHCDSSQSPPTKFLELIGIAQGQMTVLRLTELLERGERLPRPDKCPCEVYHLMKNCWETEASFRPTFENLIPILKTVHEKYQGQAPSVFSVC
- assayName: Enzyme assay (Assay Example^a 1), Tyk2
- Format: biochemical
- measurementContext: ATP 100 μM; Table^a 154
# output: bare number, implied unit µM

Prompt: Look up IC50 of FCCNC[C@H]1CC[C@H](c2nnn3cnc4[nH]ccc4c23)CC1 and report it.
Completion: 0.036

Prompt: Look up IC50 of O=C(Nc1nncs1)N1CCCC(c2nnn3cnc4[nH]ccc4c23)C1 (racemic) and report it.
Completion: 0.42

Prompt: Look up IC50 of Fc1cc(Cl)ccc1CN1CCC(c2nnn3cnc4[nH]ccc4c23)CC1 and report it.
Completion: 0.097

Prompt: Look up IC50 of Fc1cc(CN2CCC(c3nnn4cnc5[nH]ccc5c34)CC2)ccc1Cl and report it.
Completion: 0.3

Prompt: Look up IC50 of Fc1ccc(CCNC[C@H]2CC[C@H](c3nnn4cnc5[nH]ccc5c34)CC2)cc1 and report it.
Completion: 0.028

Prompt: Look up IC50 of c1csc(CN2CCC(c3nnn4cnc5[nH]ccc5c34)CC2)n1 and report it.
Completion: 0.46

====

- systemName: JAK1 (Homo sapiens (Human))
- assayName: Enzyme assay (Assay Example^a 1), JAK1
- Format: biochemical
- measurementContext: ATP 100 μM
IC50 class ranges: lowest (below 0.004 µM), middle (0.004 µM to below 0.01 µM), highest (0.01 µM or more)

Record excerpt, results attached:
>>> print(df.to_string())
                                   molecule                   systemname    class
0  N#Cc1ccc(CN2CCC(c3nnn4cnc5[nH]ccc5c34)CC2)cc1C(F)(F)F  JAK1 (Homo sapiens (Human))   middle
1  CCOC(=O)C=C1CCC(c2nnn3cnc4[nH]ccc4c23)CC1 (stereo not shown)  JAK1 (Homo sapiens (Human))  highest
2  IC[C@H]1CC[C@H](c2nnn3cnc4[nH]ccc4c23)CC1  JAK1 (Homo sapiens (Human))   lowest
3  CC(C)(C)OC(=O)N[C@@H]1CCN(C[C@H]2CC[C@H](c3nnn4cnc5[nH]ccc5c34)CC2)C1  JAK1 (Homo sapiens (Human))  highest
4  N#Cc1ccc(NC[C@H]2CC[C@H](c3nnn4cnc5[nH]ccc5c34)CC2)cc1C#N  JAK1 (Homo sapiens (Human))   middle

Prompt: Hello team, could you let me know which band the following molecule falls into: O/N=C/[C@H]1CC[C@H](c2nnn3cnc4[nH]ccc4c23)CC1
Completion: highest

Prompt: Hello team, could you let me know which band the following molecule falls into: N#CC(C#N)=C[C@H]1CC[C@H](c2nnn3cnc4[nH]ccc4c23)CC1
Completion: middle

====

- systemName: JAK1 (Homo sapiens (Human))
- assayName: JAK1 enzyme assay (Assay Example^b 1)
- measurementContext: IC50 (μM) JAK1, ATP 100 μM
Measured IC50 accompanies every entry in the list below.
# output: bare number, implied unit µM

                                   molecule  resultvalue
0  O=c1c2cnc3[nH]ccc3c2n(C2CCCCC2)c(=O)n1CC(F)(F)F [Synthetic Example^b 139]          0.1
1  O=c1ccn(C2C3CC4CC2CC(O)(C4)C3)c2c1cnc1[nH]ccc12 (stereo not shown) [compound 106]        0.047

Prompt: Look up IC50 of O=c1[nH]c(=O)n(C2CCN(CCNC3CCNCC3)CC2)c2c1cnc1[nH]ccc12 and report it.
Completion: 0.44

Prompt: Look up IC50 of Cn1c(=O)c2cnc3[nH]ccc3c2n(C2CCCCC2)c1=O [Synthetic Example^b 138] and report it.
Completion: 0.04

Prompt: Look up IC50 of O=CC1CCC(n2c(=O)[nH]c(=O)c3cnc4[nH]ccc4c32)CC1 (stereo not shown) and report it.
Completion: 0.012

Prompt: Look up IC50 of N#CCC[C@H]1CC[C@H](n2c(=O)[nH]c(=O)c3cnc4[nH]ccc4c32)CC1 [Synthetic Example^b 134] and report it.
Completion: 0.002

Prompt: Look up IC50 of O=c1[nH]c(=O)n(C2CCN(Cc3ccc(Br)s3)CC2)c2c1cnc1[nH]ccc12 and report it.
Completion: 0.011

Prompt: Look up IC50 of O=c1[nH]c(=O)n(C2CCC(CNCC3CC3)CC2)c2c1cnc1[nH]ccc12 (stereo not shown) and report it.
Completion: 0.03

Prompt: Look up IC50 of O=c1[nH]c(=O)n(C2CCN(CCNCC3CC3)CC2)c2c1cnc1[nH]ccc12 and report it.
Completion: 0.42

Prompt: Look up IC50 of CC(C)(C)OC(=O)N1CCC(NCCN2CCC(n3c(=O)[nH]c(=O)c4cnc5[nH]ccc5c43)CC2)CC1 and report it.
Completion: 0.92

Prompt: Look up IC50 of O=C(CC(F)(F)F)N(CC(F)(F)F)C[C@H]1CC[C@H](n2c(=O)[nH]c(=O)c3cnc4[nH]ccc4c32)CC1 and report it.
Completion: 0.0021

====

- systemName: JAK2 (Homo sapiens (Human))
- assayName: Enzyme assay (Assay Example^a 1), JAK2
- Format: biochemical
- measurementContext: ATP 100 μM
endpointLabel: IC50 (µM)
# output: bare number, implied unit µM

                                   compound  resultvalue
0  N#Cc1ccc(CN2CCC(c3nnn4cnc5[nH]ccc5c34)CC2)cc1C(F)(F)F        0.038
1  N#Cc1ccc(CCN[C@H]2CC[C@H](c3nnn4cnc5[nH]ccc5c34)CC2)cc1 [391b]         0.39
2  FC(F)(F)CCNC[C@H]1CC[C@H](c2nnn3cnc4[nH]ccc4c23)CC1        0.062

Prompt: Look up IC50 of CNC[C@H]1CC[C@H](c2nnn3cnc4[nH]ccc4c23)CC1 and report it.
Completion: 0.029

====

- systemName: JAK1 (Homo sapiens (Human))
- assayName: Enzyme assay (Assay Example^a 1), JAK1
- Assay type: biochemical
- measurementContext: ATP 100 μM
Measured IC50 accompanies every entry in the list below.
# output: bare number, implied unit µM

Before answering, review these 3 worked examples.
>>> print(df.to_string())
                                   molecule  resultvalue
0  N#CCNC[C@H]1CC[C@H](c2nnn3cnc4[nH]ccc4c23)CC1 [compound 259]       0.0021
1  c1cc2c(ncn3nnc([C@H]4CC[C@H](CN5CCC(N6CCOCC6)CC5)CC4)c23)[nH]1 [compound 334]        0.064
2  c1cc2c(ncn3nnc(C4CCCCC4)c23)[nH]1 [compound 6]       0.0038

// below: IC50 requested for another molecule
Prompt: Look up IC50 of Clc1ccc(C2(NC[C@H]3CC[C@H](c4nnn5cnc6[nH]ccc6c45)CC3)COC2)cc1 [compound 308] and report it.
Completion: 0.0024

====

- systemName: JAK3 (Homo sapiens (Human), UniProt P52333)
- Sequence (P52333 whole entry): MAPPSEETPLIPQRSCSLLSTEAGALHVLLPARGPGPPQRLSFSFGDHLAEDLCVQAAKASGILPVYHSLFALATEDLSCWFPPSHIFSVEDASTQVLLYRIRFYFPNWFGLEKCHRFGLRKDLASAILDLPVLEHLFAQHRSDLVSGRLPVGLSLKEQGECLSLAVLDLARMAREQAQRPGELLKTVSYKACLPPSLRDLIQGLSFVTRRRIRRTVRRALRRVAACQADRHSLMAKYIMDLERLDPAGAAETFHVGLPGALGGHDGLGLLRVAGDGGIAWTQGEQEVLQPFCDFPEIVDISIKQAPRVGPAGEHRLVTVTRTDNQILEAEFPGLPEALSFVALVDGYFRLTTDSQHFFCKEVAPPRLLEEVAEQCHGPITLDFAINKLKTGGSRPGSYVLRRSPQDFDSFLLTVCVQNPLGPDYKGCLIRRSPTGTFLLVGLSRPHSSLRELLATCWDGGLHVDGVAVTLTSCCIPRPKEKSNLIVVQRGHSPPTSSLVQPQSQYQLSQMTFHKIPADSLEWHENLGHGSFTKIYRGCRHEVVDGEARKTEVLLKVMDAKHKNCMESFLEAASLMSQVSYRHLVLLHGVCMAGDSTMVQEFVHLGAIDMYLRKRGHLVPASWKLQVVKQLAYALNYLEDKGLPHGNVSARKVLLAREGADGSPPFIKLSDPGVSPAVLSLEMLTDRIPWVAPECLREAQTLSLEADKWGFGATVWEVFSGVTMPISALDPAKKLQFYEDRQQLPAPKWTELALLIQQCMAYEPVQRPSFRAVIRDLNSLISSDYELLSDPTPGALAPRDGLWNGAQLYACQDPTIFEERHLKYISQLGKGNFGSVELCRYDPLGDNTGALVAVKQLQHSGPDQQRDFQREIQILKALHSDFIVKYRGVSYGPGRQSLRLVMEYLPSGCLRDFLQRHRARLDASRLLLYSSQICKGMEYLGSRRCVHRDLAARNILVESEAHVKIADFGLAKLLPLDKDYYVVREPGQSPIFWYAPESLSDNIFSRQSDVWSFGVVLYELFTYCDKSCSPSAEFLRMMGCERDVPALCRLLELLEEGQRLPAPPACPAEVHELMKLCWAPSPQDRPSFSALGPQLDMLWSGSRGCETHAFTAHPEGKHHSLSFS
- assayName: JAK3 enzyme assay (Assay Example^b 1)
- measurementContext: IC50 (μM) JAK3, Table^b 78; ATP 100 μM
Measured IC50 accompanies every entry in the list below.
# output: bare number, implied unit µM

Before answering, review these 3 worked examples.
In [3]: df
Out[3]:
                                   molecule  endpointlabel  resultvalue
0  C[C@@H]1CCN(C(=O)CC#N)C[C@@H]1N1COCc2cnc3[nH]ccc3c21 (racemic)           IC50         0.11
1        O=c1ccn(C2CCCCC2)c2c1cnc1[nH]ccc12           IC50         0.22
2          O=C1NCc2cnc3[nH]ccc3c2N1C1CCCCC1           IC50         0.69

Prompt: Look up IC50 of CC1OCN(C2CCCCC2)c2c1cnc1[nH]ccc21 (centres unmarked) and report it.
Completion: 2

Prompt: Look up IC50 of C[C@@H]1CCN(C(=O)CC(F)(F)F)C[C@@H]1n1ccc(=O)c2cnc3[nH]ccc3c21 (racemic) and report it.
Completion: 0.01

Prompt: Look up IC50 of O=c1ncn(C2CCCCC2)c2c1cnc1[nH]ccc12 and report it.
Completion: 1.3

Prompt: Look up IC50 of C[C@@H]1CCN(C(=O)CC2CC2)C[C@@H]1n1ccc(=O)c2cnc3[nH]ccc3c21 (racemic) and report it.
Completion: 0.041

Prompt: Look up IC50 of C[C@@H]1CCN(C(=O)CC#N)C[C@@H]1n1ccc(=O)c2cnc3[nH]ccc3c21 (racemic) and report it.
Completion: 0.0032
